target_under_test: PAGFP-Tau / PAGFP-TauΔK280 (Homo sapiens, UniProt P10636, DEL125-375/DEL395-460/DEL597-597)
Sequence (P10636 with tags, fused parts or gaps DEL125-375/DEL395-460/DEL597-597): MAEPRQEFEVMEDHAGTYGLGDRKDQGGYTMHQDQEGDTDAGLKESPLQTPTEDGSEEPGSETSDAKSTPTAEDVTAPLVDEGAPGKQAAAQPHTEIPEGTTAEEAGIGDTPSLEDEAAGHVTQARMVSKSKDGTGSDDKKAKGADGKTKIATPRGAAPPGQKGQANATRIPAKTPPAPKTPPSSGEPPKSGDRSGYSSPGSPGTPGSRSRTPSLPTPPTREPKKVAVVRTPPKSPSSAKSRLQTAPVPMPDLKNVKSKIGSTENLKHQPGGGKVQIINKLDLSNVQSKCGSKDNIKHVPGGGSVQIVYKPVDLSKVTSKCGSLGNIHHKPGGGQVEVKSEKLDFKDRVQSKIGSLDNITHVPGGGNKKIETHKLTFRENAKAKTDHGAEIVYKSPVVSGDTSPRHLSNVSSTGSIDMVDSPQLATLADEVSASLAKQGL
test_name: FDAP live-cell imaging, effective diffusion constant of tau (restored microtubule binding)
pIC50: −log10 of the molar value.

compound	pIC50
O=C(Nc1ccccc1)c1coc(-c2ccc(O)cc2O)n1 [PHOX15]	4.85
